- target desc: human HCN1 (Homo sapiens)
- Construct: expressed in transfected cells; host or cells: HEK-293H
- Sequence (O60741 whole entry): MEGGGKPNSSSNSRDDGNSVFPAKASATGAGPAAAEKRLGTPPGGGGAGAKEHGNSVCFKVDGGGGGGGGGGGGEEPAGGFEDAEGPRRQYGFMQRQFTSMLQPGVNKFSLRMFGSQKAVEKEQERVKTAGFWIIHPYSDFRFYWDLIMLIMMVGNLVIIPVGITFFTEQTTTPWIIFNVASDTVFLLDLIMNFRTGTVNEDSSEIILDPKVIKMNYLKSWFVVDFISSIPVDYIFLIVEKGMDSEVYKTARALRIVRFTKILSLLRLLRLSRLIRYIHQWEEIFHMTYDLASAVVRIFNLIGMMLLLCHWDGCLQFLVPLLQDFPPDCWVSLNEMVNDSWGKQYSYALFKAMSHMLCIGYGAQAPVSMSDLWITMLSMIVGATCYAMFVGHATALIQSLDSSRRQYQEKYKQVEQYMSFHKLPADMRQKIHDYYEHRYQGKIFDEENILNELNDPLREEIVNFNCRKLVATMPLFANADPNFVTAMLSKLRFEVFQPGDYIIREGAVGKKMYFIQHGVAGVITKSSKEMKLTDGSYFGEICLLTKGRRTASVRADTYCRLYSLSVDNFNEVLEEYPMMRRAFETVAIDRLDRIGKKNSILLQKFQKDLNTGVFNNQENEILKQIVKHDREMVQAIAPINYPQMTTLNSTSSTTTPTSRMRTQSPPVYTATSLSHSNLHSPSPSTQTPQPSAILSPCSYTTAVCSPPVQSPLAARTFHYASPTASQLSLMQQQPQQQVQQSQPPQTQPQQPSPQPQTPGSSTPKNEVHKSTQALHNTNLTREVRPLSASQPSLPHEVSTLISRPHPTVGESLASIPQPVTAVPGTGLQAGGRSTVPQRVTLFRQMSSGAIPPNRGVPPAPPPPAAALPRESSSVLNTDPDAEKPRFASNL
- protocol text: Dose response of blockade of hyperpolarization (MPSD FLIPR), HCN1
- Format: cell-based
- study conditions: HEK-293 clone, group 1, n=8, mean ± 0.2 μM, read-out: IC50 mean, group 1
property name: IC50
Report as: number unit

-- ask Please tell me: IC50 of CCN(c1ccccc1)c1cc(=NC)n(C)c(C)n1.Cl , system human HCN1 (Homo sapiens)?
-- reply 2100 nM

---

- target desc: human HCN4 channel (Homo sapiens)
- Construct: expressed in transfected cells; host or cells: CHO-K1
- Sequence (Q9Y3Q4 whole entry): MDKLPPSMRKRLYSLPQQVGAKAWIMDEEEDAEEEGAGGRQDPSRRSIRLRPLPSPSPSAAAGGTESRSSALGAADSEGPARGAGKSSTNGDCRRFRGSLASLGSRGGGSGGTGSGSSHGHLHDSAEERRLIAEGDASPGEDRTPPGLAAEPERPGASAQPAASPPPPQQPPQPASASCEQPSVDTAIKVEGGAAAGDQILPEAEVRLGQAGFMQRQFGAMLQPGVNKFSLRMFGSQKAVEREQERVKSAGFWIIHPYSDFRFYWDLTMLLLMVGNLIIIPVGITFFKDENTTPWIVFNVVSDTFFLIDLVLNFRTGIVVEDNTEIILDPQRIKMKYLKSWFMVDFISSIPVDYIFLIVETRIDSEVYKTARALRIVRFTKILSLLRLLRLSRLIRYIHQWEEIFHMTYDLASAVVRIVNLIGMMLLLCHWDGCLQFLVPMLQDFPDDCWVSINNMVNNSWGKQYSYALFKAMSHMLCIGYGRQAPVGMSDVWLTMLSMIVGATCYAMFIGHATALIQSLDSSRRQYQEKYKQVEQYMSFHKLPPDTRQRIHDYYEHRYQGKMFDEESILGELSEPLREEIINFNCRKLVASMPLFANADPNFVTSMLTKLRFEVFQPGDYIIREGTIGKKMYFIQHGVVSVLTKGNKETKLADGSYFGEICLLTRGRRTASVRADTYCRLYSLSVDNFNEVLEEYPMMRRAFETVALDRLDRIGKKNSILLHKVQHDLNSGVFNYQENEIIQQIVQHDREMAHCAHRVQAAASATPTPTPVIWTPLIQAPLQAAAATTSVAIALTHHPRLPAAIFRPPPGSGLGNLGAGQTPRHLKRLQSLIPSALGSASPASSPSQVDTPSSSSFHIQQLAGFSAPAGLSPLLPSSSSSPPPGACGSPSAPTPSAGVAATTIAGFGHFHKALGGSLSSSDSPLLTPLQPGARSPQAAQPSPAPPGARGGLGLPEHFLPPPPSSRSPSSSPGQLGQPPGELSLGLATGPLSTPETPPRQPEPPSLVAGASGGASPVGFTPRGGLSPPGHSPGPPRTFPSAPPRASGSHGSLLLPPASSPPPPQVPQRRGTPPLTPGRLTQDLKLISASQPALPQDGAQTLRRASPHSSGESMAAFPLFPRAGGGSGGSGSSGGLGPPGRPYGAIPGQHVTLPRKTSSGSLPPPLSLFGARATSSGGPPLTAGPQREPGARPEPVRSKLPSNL
- protocol text: Dose response of blockade of hyperpolarization (MPSD FLIPR), HCN4
- Assay type: cell-based
- study conditions: CHO-K1, group 1, n=8, mean ± 2.31 μM, read-out: IC50 mean, group 1
- Protocol: HEK-293H cells stably expressing a human HCN1 channel were plated and incubated in HBSS essentially as described in Examples 3 and 5. CHO-K1 cells stably expressing a human HCN4 channel were plated and incubated in HBSS essentially as described in Example 6. […] The percent inhibition of hyperpolarization was calculated for a single dose using the following equation: […] Similarly, ZD7288 IC50 values on HCN4 channel were determined in a set of two experiments. […]
property name: IC50
Report field: quantity (unit follows the number).

-- ask Report IC50 for CCN(c1ccccc1)c1cc(=NC)n(C)c(C)n1.Cl please.
-- reply 9.07 µM
